# EXPERIMENT NOTES: Ratio of Kcat to Km for Beta-lactamase TEM-149 T182M mutant expressed in Escherichia coli HB101

CHEMICAL STRING | kcat/Km, M⁻¹ s⁻¹
CC(C)(O/N=C(\C(=O)N[C@@H]1C(=O)N2C(C(=O)[O-])=C(C[n+]3ccccc3)CS[C@H]12)c1csc(N)n1)C(=O)O | 320000
CO/N=C(\C(=O)N[C@@H]1C(=O)N2C(C(=O)O)=C(COC(C)=O)CS[C@H]12)c1csc(N)n1 | 13000
Cc1nnc(SCC2=C(C(=O)O)N3C(=O)[C@@H](NC(=O)Cn4cnnn4)[C@H]3SC2)s1 | 16000
CC1(C)S[C@@H]2[C@H](NC(=O)[C@H](N)c3ccccc3)C(=O)N2[C@H]1C(=O)O | 127000
CC1(C)S[C@@H]2[C@H](NC(=O)Cc3ccccc3)C(=O)N2[C@H]1C(=O)O | 1.5e+07
C[C@H]1[C@H](NC(=O)/C(=N\OC(C)(C)C(=O)O)c2csc(N)n2)C(=O)N1S(=O)(=O)O | 130000
CO/N=C(\C(=O)N[C@@H]1C(=O)N2C(C(=O)[O-])=C(C[N+]3(C)CCCC3)CS[C@H]12)c1csc(N)n1 | 14000
CCN1CCN(C(=O)N[C@@H](C(=O)N[C@@H]2C(=O)N3[C@@H]2SC(C)(C)[C@@H]3C(=O)O)c2ccccc2)C(=O)C1=O | 1.47e+06
